Measurement Name: MIC

In: // fetch MIC; item: CCC(C)NCC(O)Cn1c2ccc(Cl)cc2c2cc(Cl)ccc21 (stereo not shown) [Compound 10] ; system: Candida glabrata ATCC 90030
Out: 1.2 µM

In: // fetch MIC; item: CN1CCN(CC(O)Cn2c3ccc(O)cc3c3cc(O)ccc32)CC1 (stereo not shown) [Compound 13] ; system: Candida glabrata ATCC 90030
Out: > 75 µM

In: // fetch MIC; item: CN(C)CCCCn1c2ccc(Cl)cc2c2cc(Cl)ccc21 [Compound 15] ; system: Candida glabrata ATCC 90030
Out: 7.5 µM

In: // fetch MIC; item: OC(CN1CCOCC1)Cn1c2ccc(Cl)cc2c2cc(Cl)ccc21 (stereo not shown) [Compound 7] ; system: Candida glabrata ATCC 90030
Out: > 75 µM

In: // fetch MIC; item: CN1CCN(CC(O)Cn2c3ccc(C#N)cc3c3cc(C#N)ccc32)CC1 (stereo not shown) [Compound 12] ; system: Candida glabrata ATCC 90030
Out: > 75 µM

In: // fetch MIC; item: CN1CCN(CC(O)Cn2c3ccc(Cl)cc3c3cc(Cl)ccc32)CC1 (stereo not shown) [Compound 8] ; system: Candida glabrata ATCC 90030
Out: 42 µM

In: // fetch MIC; item: CN1CCN(CCCn2c3ccc(Cl)cc3c3cc(Cl)ccc32)CC1 [Compound 16] ; system: Candida glabrata ATCC 90030
Out: 7.5 µM

In: // fetch MIC; item: O=C(O)C1CCN(CC(O)Cn2c3ccc(Cl)cc3c3cc(Cl)ccc32)CC1 (stereo not shown) [Compound 9] ; system: Candida glabrata ATCC 90030
Out: > 75 µM

In: // fetch MIC; item: COc1ccc2c(c1)c1cc(OC)ccc1n2CC(O)CN1CCN(C)CC1 (stereo not shown) [Compound 11] ; system: Candida glabrata ATCC 90030
Out: > 75 µM

In: // fetch MIC; item: OC(Cn1ccnc1)Cn1c2ccc(Cl)cc2c2cc(Cl)ccc21 (stereo not shown) [Compound 5] ; system: Candida glabrata ATCC 90030
Out: > 75 µM

In: // fetch MIC; item: Clc1ccc2c(c1)c1cc(Cl)ccc1n2CCCN1CCOCC1 [Compound 18] ; system: Candida glabrata ATCC 90030
Out: > 75 µM

In: // fetch MIC; item: OC(Cn1cncn1)Cn1c2ccc(Cl)cc2c2cc(Cl)ccc21 (stereo not shown) [Compound 6] ; system: Candida glabrata ATCC 90030
Out: > 75 µM

In: // fetch MIC; item: CN(C)CCCn1c2ccc(Cl)cc2c2cc(Cl)ccc21 [Compound 14] ; system: Candida glabrata ATCC 90030
Out: 24 µM
